System: HNF-3beta expression in human embryonic stem cells (H9 line)
Test: High content screening assay: HNF-3beta protein expression (differentiation)
Assay type: cell-based
Settings: total intensity normalised to Wnt 3a/AA control
Field: class. Source value: HNF-3b Expression Fold over Wnt 3a/AA control. Ranges: low = under 0.4 fold, mid = from 0.4 fold up to 1 fold, high = 1 fold and over

See these solved cases before continuing.
Compound	Qualitative label
COCCN1CCOCCn2cc(c3ccccc32)C2=C(C(=O)NC2=O)c2nn(c3ccccc23)CCOCC1	mid
CCN1CCOCCn2cc(c3ccccc32)C2=C(C(=O)NC2=O)c2cn(c3ccccc23)CCOCC1	mid
O=C1NC(=O)C2=C1c1cn(c3ncccc13)CCOCCOCCOCCOCCn1cc2c2cccnc21	high
O=C1NC(=O)C2=C1c1cn(c3ccccc13)CCOCCOCCOCCOCCn1cc2c2ccccc21	high
O=C1NC(=O)C2=C1c1cn(c3ncccc13)CCOCCOCCOCCOCCOCCn1cc2c2cccnc21	low

Looking at O=C1NC(=O)C2=C1c1cn(c3ncccc13)CCOCCOCCn1cc2c2cccnc21 , which class would you pick?
low

Param item: CN1CCCn2cc(c3ccccc32)C2=C(C(=O)NC2=O)c2cn(c3ccccc23)CCOCCOCC1
mid

Ok, now O=C1NC(=O)C2=C1c1cn(c3ccccc13)CCOCCOCCn1cc2c2ccccc21
low

---

Tested on: cells expressing pluripotency markers derived from human embryonic stem cells
Experiment: MTS viability (toxicity) assay of cells expressing pluripotency markers
Assay type: cell-based
Conditions: MTS viability assay raw reading, replicate 2
Measured parameter: Raw data (duplicate), second replicate
Output: the number by itself.

Compound	System under test	Measured result
COc1ncc(C2=C(c3cn(CCc4ccccc4)c4ncccc34)C(=O)NC2=O)c(OC)n1 [Compound 98]	cells expressing pluripotency markers derived from human embryonic stem cells	0.575

Query Raw data (duplicate), second replicate on cells expressing pluripotency markers derived from human embryonic stem cells for COCCN1CCOCCn2cc(c3ccccc32)C2=C(C(=O)NC2=O)c2nn(c3ccccc23)CCOCC1 [Compound 10]
0.620

Ok, now O=C1NC(=O)C(c2cn(CCCO)c3ncccc23)=C1c1cn(CCCO)cn1 [Compound 182]
0.801

Please answer likewise for CN(C)CCCn1c2c(c3ccccc31)C1=C(C(=O)NC1=O)N(c1cccc(Cl)c1)C2 [Compound 101]
0.768

---

Here, each record is paired with measured activity at 5 µM data.
System: human embryonic stem cell line H1
Test: Dose titration secondary assay: cell number, H1
Format: cell-based
Details: Homo sapiens, Embryonic stem cell, Conc 5 μM, positive control (Wnt3a/Activin A) normalized to 1.000
Answer in %, number only, no unit symbol.

Provide the documented activity at 5 µM with human embryonic stem cell line H1 as the system for O=C1NC(=O)C(c2cn(CCOCCOCCO)c3ccccc23)=C1c1cn(CCO)c2ccccc12
53

Another molecule to look at: O=C1NC(=O)C2=C1Nc1cccc(c1)OCCC/C=C\CCCOc1cccc2c1
8.9

Now this one: O=C1NC(=O)C(c2nn(CCCO)c3ccccc23)=C1c1cn(-c2cccnc2)c2ccc(Cl)cc12
2.4

---

Test system: human embryonic stem cell line H1
Assay: Dose titration secondary assay: cell number, H1
Format: cell-based
Conditions: Conc 0.313 μM, positive control (Wnt3a/Activin A) normalized to 1.000
Rule: Cell number below 0.9 gives 1. Equal to or above 0.9 gives -1.

Mol smiles	System under test	Qualitative label
CCN1CCOCCOCCn2cc(c3ccccc32)C2=C(C(=O)NC2=O)c2cn(c3ccccc23)CC1	human embryonic stem cell line H1	-1
CN1CCOCCOCCN(C)CCn2cc(c3ccccc32)C2=C(C(=O)NC2=O)c2cn(c3ccccc23)CC1	human embryonic stem cell line H1	-1
O=C1NC(=O)C2=C1c1cn(c3ccccc13)CCOCCOCCN(Cc1cccc3ccccc13)CCn1cc2c2ccccc21	human embryonic stem cell line H1	1

Now examine the next entry.
Dear reviewer, please state whether CN1CCN(C)CCn2cc(c3ccccc32)C2=C(C(=O)NC2=O)c2cn(c3ccccc23)CC1 has Cell number strictly beneath 0.9.
1

---

This section presents compounds with their documented activity at 10 µM values.
Test system: human embryonic stem cells (H9 or H1 lines)
Experiment: Plate reader (MTS) proliferation assay
Assay type: cell-based
Conditions: Homo sapiens, Embryonic stem cell, 96 h; 10 μM test compound with 100 ng/ml activin A on days 1-2; MTS OD490 on day 4; vs Activin A/Wnt3a positive control; strong and moderate hits
Please respond with the number in % and leave the unit unwritten.

Compound	System under test	Measurement unit	Measured result
COc1ccccc1C1=C(c2cn(-c3cccnc3)c3ccccc23)C(=O)NC1=O	human embryonic stem cells (H9 or H1 lines)	%	76.9
CN(C)c1ccc(-n2cc(C3=C(c4nn(CCO)c5ccccc45)C(=O)NC3=O)c3cc(Cl)ccc32)cn1	human embryonic stem cells (H9 or H1 lines)	%	106
O=C1NC(=O)C(c2cn(CCCO)c3ncccc23)=C1c1ccccc1C(F)(F)F	human embryonic stem cells (H9 or H1 lines)	%	85.5
CN(CCO)CCCn1nc(C2=C(c3cn(-c4cccnc4)c4ccccc34)C(=O)NC2=O)c2ccccc21	human embryonic stem cells (H9 or H1 lines)	%	70.7
O=C(Nc1ccc(C(=O)N2CC3CSCCN3Cc3ccccc32)c(Cl)c1)c1cc(Cl)cc(Cl)c1 (centres unmarked)	human embryonic stem cells (H9 or H1 lines)	%	180
CN(C)c1cccc(-n2cc(C3=C(c4nn(CCO)c5ccccc45)C(=O)NC3=O)c3ccccc32)c1	human embryonic stem cells (H9 or H1 lines)	%	61.1
CN(C)CCCn1c2c(c3ccccc31)C1=C(C(=O)NC1=O)N(c1cccc(Cl)c1)C2	human embryonic stem cells (H9 or H1 lines)	%	155

Turning to the following compound.
What does the record list as activity at 10 µM for CC(C)(O)CCn1nc(C2=C(c3cn(-c4cccnc4)c4ccccc34)C(=O)NC2=O)c2ccccc21 ?
129

---

Test system: cells expressing pluripotency markers derived from human embryonic stem cells
Assay: MTS viability (toxicity) assay of cells expressing pluripotency markers
Type: cell-based
Settings: cmpd conc 2.5 μM; MTS on day 4
Measured parameter: Average of raw data (duplicate), optical density at 490 nm
Write no unit; give the number alone.

Compound	Measured result
O=C1NC(=O)C(c2cn(CCOCCOCCNC3CCCc4ccccc43)c3ccccc23)=C1c1cn(CCNC2CCCc3ccccc32)c2ccccc12 (stereo not shown) [Compound 144]	0.2898
CC(C)(O)CCn1nc(C2=C(c3cn(-c4cccnc4)c4ccccc34)C(=O)NC2=O)c2ccccc21 [Compound 223]	0.8427
OCCC#Cc1nc(-c2ccc(F)cc2)c(-c2ccncc2)n1CCCc1ccccc1 [Compound 158]	0.7971

For the next question, use this compound.
Param item = CCN1CCOCCOCCn2cc(c3ccccc32)C2=C(C(=O)NC2=O)c2cn(c3ccccc23)CC1 [Compound 103] ; retrieve measured Average of raw data (duplicate), optical density at 490 nm.
0.4737

---

System: cells expressing pluripotency markers derived from human embryonic stem cells
Assay: MTS viability (toxicity) assay of cells expressing pluripotency markers
Assay type: cell-based
Conditions: MTS viability assay raw reading, replicate 2
Please respond with Criterion met when measured Raw data (duplicate), second replicate is strictly beneath 0.6, and with Criterion not met in all other cases.

Worked cases, answers included:
Mol smiles	System under test	Qualitative label
COCCCn1cc(C2=C(c3ccccc3OC)C(=O)NC2=O)c2cnccc21	cells expressing pluripotency markers derived from human embryonic stem cells	Criterion not met
COCCCn1cc(C2=C(c3ccccc3O)C(=O)NC2=O)c2cccnc21	cells expressing pluripotency markers derived from human embryonic stem cells	Criterion not met
OCCC#Cc1nc(-c2ccc(F)cc2)c(-c2ccncc2)n1CCCc1ccccc1	cells expressing pluripotency markers derived from human embryonic stem cells	Criterion not met
O=C1NC(=O)C(c2cccc3c2oc2ccccc23)=C1c1cn(CCCO)c2ncccc12	cells expressing pluripotency markers derived from human embryonic stem cells	Criterion met
O=C1NC(=O)C2=C1c1cn(c3ccccc13)CCOCCOCCN(Cc1ccccc1)CCn1cc2c2ccccc21	cells expressing pluripotency markers derived from human embryonic stem cells	Criterion not met

Take the compound O=C1NC(=O)C2=C1c1cn(c3ccccc13)CCOCCOCCOCCOCCn1cc2c2ccccc21 and say whether its Raw data (duplicate), second replicate is less than 0.6.
Criterion not met

Also need CN(C)CCCn1nc(C2=C(c3cn(-c4cccc5ccccc45)c4ccccc34)C(=O)NC2=O)c2ccccc21 , thanks.
Criterion met

---

Tested on: human embryonic stem cells (H9 or H1 lines)
Test: Plate reader (MTS) proliferation assay
Assay type: cell-based
Settings: average of replicate raw data
Assign class by Average: not lower than 1 means 1; lower than 1 means -1.

Compound	Qualitative label
O=C1NC(=O)C2=C1c1cn(c3ccccc13)CCOCCOCCN(Cc1ccccc1)CCn1cc2c2ccccc21	1
O=C1NC(=O)C(c2cn(CCOCCOCCNC3CCCc4ccccc43)c3ccccc23)=C1c1cn(CCNC2CCCc3ccccc32)c2ccccc12 (stereo not shown)	1
O=C1NC(=O)C(c2cn(-c3cncnc3)c3ccccc23)=C1c1cn(CCO)c2ccccc12	1
O=C1NC(=O)C(c2cn(CCCO)c3ncccc23)=C1c1cn(CCO)cn1	-1
Cn1cc(C2=C(c3nn(CCCn4ccnc4)c4ccccc34)C(=O)NC2=O)c2cc(Cl)ccc21	1

Hi team, for CN1CCN(C)CCn2cc(c3ccccc32)C2=C(C(=O)NC2=O)c2cn(c3ccccc23)CC1 , is the recorded Average at or above 1?
-1

Next: Cn1ccc(C2=C(c3cn(CCCO)c4ncccc34)C(=O)NC2=O)n1
1
